molecular target: Retinoic acid receptor RXR-alpha (Homo sapiens) (UniProt P19793); assay: qHTS assay for small molecule antagonists of retinoid X receptor alpha signaling (AID 588546); conditions: HEK293T RXRa-UAS-bla, beta-lactamase ratio, antagonist mode;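 also: cells stimulated with 9-cis-retinoic acid as agonist; % is scaled to controls: 0 for no effect and ±100 for the full control effect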
Sequence (P19793 whole entry, looked up): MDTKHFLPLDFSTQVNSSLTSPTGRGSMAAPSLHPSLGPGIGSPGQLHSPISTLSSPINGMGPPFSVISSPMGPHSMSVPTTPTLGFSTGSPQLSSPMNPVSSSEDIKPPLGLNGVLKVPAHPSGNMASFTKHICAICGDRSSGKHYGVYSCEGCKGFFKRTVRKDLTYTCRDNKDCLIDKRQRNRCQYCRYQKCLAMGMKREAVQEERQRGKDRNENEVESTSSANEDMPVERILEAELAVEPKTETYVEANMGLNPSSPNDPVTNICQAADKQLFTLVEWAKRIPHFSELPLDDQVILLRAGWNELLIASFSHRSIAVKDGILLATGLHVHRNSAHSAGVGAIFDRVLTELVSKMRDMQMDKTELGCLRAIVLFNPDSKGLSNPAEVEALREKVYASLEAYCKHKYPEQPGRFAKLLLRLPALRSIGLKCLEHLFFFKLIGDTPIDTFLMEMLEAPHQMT
Inconclusive results are not listed.
Observable: max response (%)

INSERT INTO results (smiles_input, observable, unit_spec, data_value) VALUES
  ('CCCCCCCCCCCCCCCC[n+]1ccccc1', 'max response', '%', -34.1),
  ('Cc1ccc(O)cc1', 'max response', '%', 9.57),
  ('Cc1ncc(CO)c(CO)c1O', 'max response', '%', 7.42),
  ('CCCC(=O)c1cc(O)c(O)cc1O', 'max response', '%', 15.9),
  ('COC(=O)c1c(Cl)c(Cl)c(C(=O)OC)c(Cl)c1Cl', 'max response', '%', 4.25);

###

tested on: HEK293; experiment: Cytotoxic Profiling of Annotated Libraries Using Quantitative High-Throughput Screening (AID 1296008); settings: Five cell lines viability, CellTiter-Glo ATP luminescence, 48-72 h; hits give low values; also: nearly all actives have a fitted effect of over 60% in size; as to max response: % is scaled to controls: 0 for no effect and ±100 for the full control effect
Records with an inconclusive call do not appear. Calls of active or inactive are those of the source. The call rests on the fitted dose curve; in most records, active means well fitted inhibition curve with a large enough effect; inconclusive means small, poorly fitted or top-dose-only effect; inactive means flat fitted curve, though single readings scatter. *1 amine or outer side, *2 acyl side, *3 side chain or, on linkers, in order; H or OH if unused. Where a SMILES comes first, the peptide text is derived from it. Bridges are numbered along the chain shown (N, C = ends). [ ]: non-standard residue; d: D form. The star is where a group is joined. ξ: configuration not given here. X10 = NC1=NCCC(C(N[*:1])C(=O)[*:2])N1; ΔAla(3-NHCONH2) = NC(=O)NC=C(N)C(=O)O; ξβ3hOrn = NCCCC(N)CC(=O)*; Dap = NC[CH](N)C(=O)O
# max response per record follows
Observable: max response

INSERT INTO results (compound, data_value) VALUES
  ('CN1C(=O)CC(C)(c2ccccc2)C1=O (configuration not stated)', '1.84% (inactive)'),
  ('CN(C)C(=O)CNC(=O)Cc1ccccc1', '-9.26% (inactive)'),
  ('O=C(O)c1cn(C2CC2)c2cc(Cl)c(F)cc2c1=O', '-5.06% (inactive)'),
  ('O=C(O)CCCC[C@@H]1SC[C@@H]2NC(=O)N[C@@H]21', '-6.79% (inactive)'),
  ('CC(=O)[C@H]1CC[C@H]2[C@@H]3C=CC4=CC(=O)CC[C@@]4(C)[C@@H]3CC[C@]12C', '-2.74% (inactive)'),
  ('CCOC(=O)NNc1nncc2ccccc12', '-5.42% (inactive)'),
  ('COc1cc2c(cc1OC)C(=O)CC2', '3.36% (inactive)'),
  ('COCCOCC(OC)OC', '-49.7% (inactive)'),
  ('CC(=O)OCC(=O)[C@@]1(O)CCC2C3CCC4=CC(=O)CC[C@]4(C)C3[C@@H](O)C[C@@]21C (some centres not stated)', '2.9% (inactive)'),
  ('Brc1ccccc1-c1ccccc1', '-9.62% (inactive)'),
  ('COc1ccc2c(c1)c(CC(=O)OC/C=C(\C)CC/C=C(\C)CCC=C(C)C)c(C)n2C(=O)c1ccc(Cl)cc1', '-3.27% (inactive)'),
  ('CC(=O)N[C@@H](CO)C(=O)N[C@@H](CC(=O)O)C(=O)N[C@@H](CCCCN)C(=O)N1CCC[C@H]1C(=O)O (Ac-SDKP-OH)', '0.0413% (inactive)'),
  ('CC(C(=O)O)c1ccc(/C=C2\CCCCC2=O)cc1 (configuration not stated)', '-12.2% (inactive)'),
  ('CCN(CC)CCN', '2.25% (inactive)'),
  ('CC(C)(Oc1ccc(Cl)cc1)C(=O)OCCCOC(=O)C(C)(C)Oc1ccc(Cl)cc1', '-15.3% (inactive)'),
  ('O=C1CC2(CCCC2)CC(=O)N1', '4.63% (inactive)'),
  ('NCCCC(N)CC(=O)NCC1NC(=O)C(CO)NC(=O)C(N)CNC(=O)C(C2CCN=C(N)N2)NC(=O)C(=CNC(N)=O)NC1=O (stereo not drawn) (H-[Dap]S[Dap](ξβ3hOrn)[ΔAla(3-NHCONH2)][X10]; lactam 1-C; configuration not given here)', '-7.39% (inactive)'),
  ('N[C@@H](Cc1cc(I)c(O)c(I)c1)C(=O)O', '-5.41% (inactive)'),
  ('CN1C(=O)c2ccccc2C1=O', '-4.39% (inactive)'),
  ('O=C(O)[C@@H](O)[C@H](O)[C@H](O)[C@@H](O)C(=O)O', '3.38% (inactive)'),
  ('O=C(O)c1ccc(OCCN2CCCCC2)cc1', '-3.98% (inactive)'),
  ('COC(=O)c1cc(S(N)(=O)=O)ccc1OC', '4.21% (inactive)');

###

target: Calcium and integrin-binding protein 1 (Homo sapiens) (UniProt Q99828); assay: Primary qHTS for Identification of Calcium Integrin Binding Protein 1 (CIB1) Competitor (AID 1508620); details: CIB1-GST / FITC-alphaIIb peptide fluorescence polarization; series mostly up to 114 µM;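 also: GST tagged CIB1 binding a fluorescein labelled alphaIIb integrin peptide tracer; top concentration of the series differs between compounds; % is scaled to controls: 0 for no effect and ±100 for the full control effect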
Sequence (Q99828 whole entry, looked up): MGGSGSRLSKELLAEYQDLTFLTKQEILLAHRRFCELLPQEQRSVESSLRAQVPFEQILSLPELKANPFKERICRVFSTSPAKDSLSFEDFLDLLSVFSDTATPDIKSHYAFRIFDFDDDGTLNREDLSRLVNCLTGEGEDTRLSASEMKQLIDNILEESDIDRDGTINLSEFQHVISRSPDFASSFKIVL
Inconclusive results are not listed. Active and inactive are the calls of the source. Calls follow the shape of the dose curve; as a rule, active = well fitted inhibition curve with a large enough effect; inconclusive = small, poorly fitted or top-dose-only effect; inactive = flat fitted curve, though single readings scatter.
Observable: outcome

INSERT INTO assay_data (compound, data_value) VALUES
  ('OC1(c2ccccc2)CCNCC1', 'inactive'),
  ('CCOC(=O)C(=O)c1csc(NC=O)n1', 'inactive'),
  ('CCOc1c(N2CCOCC2)cnn(C)c1=O', 'inactive'),
  ('CCCCOCCOC(=O)c1cccnc1', 'inactive'),
  ('CCC(=O)Oc1ccc2c(c1)CC[C@@H]1[C@@H]2CC[C@@]2(C)[C@H]1C[C@@H](OC(=O)CC)[C@@H]2OC(=O)CC', 'inactive'),
  ('N=C(N)c1ccc(OCCCOc2ccc(C(=N)N)cc2)cc1', 'inactive'),
  ('O=C(O)c1ccc(OCCN2CCCCC2)cc1', 'inactive'),
  ('CCCCCCCCCCCCCCCCCCNC(=O)OC1CCN(C(=O)OC[C@H](COC(=O)N(Cc2cccc[n+]2CC)C(=O)c2ccccc2OC)OC)CC1', 'inactive'),
  ('O=C(CCCCC(=O)Nc1c(I)cc(I)c(C(=O)O)c1I)Nc1c(I)cc(I)c(C(=O)O)c1I', 'inactive'),
  ('CCCOc1ccc2c(c1)CC[C@@H]1[C@@H]2CC[C@]2(C)C(OC)CC[C@@H]12 (stereo partly specified)', 'inactive'),
  ('Cc1ccc(C(=O)C(=O)O)cc1C', 'inactive');

###

Test system: UISO
Test: qHTS assay to identify novel small-molecules to repurpose for Merkel cell carcinoma treatment (AID 1296009); also: nearly all actives have a fitted effect of over 60% in size; also: potency is read from the fitted curve at half-maximal effect
Conditions: MCC and control cell lines, CellTiter-Glo viability, 72 h; series mostly up to 46 µM
Excerpt: MCC is a rare and aggressive neuroendocrine skin cancer with limited treatment options. Approximately 80% of MCCs have the Merkel cell polyomavirus (MCPyV) DNA integrated into the host genome (virus-positive: VP-MCC) and viral oncogenes drive oncogenesis. The remaining MCCs are virus-negative (VN-MCC) and are caused by UV mutagenesis. […] Using cell viability as a readout (CellTiter-Glo assay) we found both overlapping and distinct drugs that can be repurposed for the treatment of VP-MCC and VN-MCC. […]
Results filed as inconclusive are left out. Active and inactive are the calls of the source. The call rests on the fitted dose curve; in most records, active means well fitted inhibition curve with a large enough effect; inconclusive means small, poorly fitted or top-dose-only effect; inactive means flat fitted curve, though single readings scatter.
Observable: Potency

INSERT INTO results (compound, observable, data_value) VALUES
  ('Cc1ncc(CO)c(CO)c1O', 'Potency', 'inactive'),
  ('CCCCC(CC)COC(=O)c1ccccc1C(=O)O (stereo not drawn)', 'Potency', 'inactive'),
  ('O=C(CCCl)NCCc1ccccc1', 'Potency', 'inactive'),
  ('Oc1ccccc1-c1nnco1', 'Potency', 'inactive'),
  ('NS(=O)(=O)c1ccc(N2CCCCS2(=O)=O)cc1', 'Potency', 'inactive'),
  ('CC[C@@]1(O)C(=O)OCc2c1cc1n(c2=O)Cc2c-1nc1ccccc1c2/C=N/OC(C)(C)C', 'Potency', '168 nM (active)'),
  ('CC(=O)[C@H]1CC[C@H]2[C@@H]3C=CC4=CC(=O)CC[C@@]4(C)[C@@H]3CC[C@]12C', 'Potency', 'inactive'),
  ('CCCCCOc1ccc(C2SC(=O)NC2=O)cc1OCC (stereo not drawn)', 'Potency', 'inactive'),
  ('CC(C)OP(=O)(CP(=O)(OC(C)C)OC(C)C)OC(C)C', 'Potency', 'inactive'),
  ('CCN(CC)CC(=O)Oc1ccc(NC(C)=O)cc1', 'Potency', 'inactive'),
  ('Cc1cc2nc3ccc(=[N+](C)C)cc-3sc2cc1N', 'Potency', '1680 nM (active)'),
  ('Cc1cc(O)c2c(O)c3c(O)cccc3cc2c1', 'Potency', 'inactive'),
  ('NCC(=O)O', 'Potency', 'inactive');

###

tested on: KB-3-1; assay: Cytotoxic Profiling of Annotated Libraries Using Quantitative High-Throughput Screening (AID 1296008); settings: Five cell lines viability, CellTiter-Glo ATP luminescence, 48-72 h; also: nearly all actives have a fitted effect of over 60% in size
Records with an inconclusive call do not appear. Calls of active or inactive are those of the source. Calls follow the shape of the dose curve; as a rule, active = well fitted inhibition curve with a large enough effect; inconclusive = small, poorly fitted or top-dose-only effect; inactive = flat fitted curve, though single readings scatter.
Labels: 1 (yes) = active, 0 (no) = inactive

INSERT INTO measurements (molecule, assigned_category) VALUES
  ('C=CC[N+]1([C@H]2C[C@H]3[C@@H]4CC[C@H]5C[C@H](OC(C)=O)[C@@H](N6CCCCC6)C[C@]5(C)[C@H]4CC[C@]3(C)[C@H]2OC(=O)CC)CCCCC1', '0 (no)'),
  ('CC(=O)O[C@@H]1C(=O)O[C@@H]2[C@H]1OC(=O)[C@@H]2OC(C)=O', '0 (no)'),
  ('CN1CC[C@H](c2c(O)cc(O)c3c(=O)cc(-c4ccccc4Cl)oc23)[C@H](O)C1', '1 (yes)'),
  ('CCOC(=O)c1ccc(NC(=O)CN2CCCCC2)cc1', '0 (no)'),
  ('CC(=O)OCC(=O)Nc1cc(C#N)cc(NC(=O)COC(C)=O)c1Cl', '0 (no)'),
  ('CC(C(=O)O)c1ccc(/C=C2\CCCCC2=O)cc1 (stereo unspecified)', '0 (no)'),
  ('CC(=O)Nc1ccn(C2COC(COC(=O)c3ccccc3)O2)c(=O)n1 (stereo unspecified)', '0 (no)'),
  ('CCCCCOc1ccc(C2SC(=O)NC2=O)cc1OCC (stereo unspecified)', '0 (no)'),
  ('COc1cc(NS(=O)(=O)c2ccc(N)cc2)nc(C)n1', '0 (no)'),
  ('CO[C@@H]1[C@@H](OC)[C@H](C)[C@@](O)(CC(=O)O)O[C@H]1[C@H](C)[C@H]1O[C@@]2(CC[C@@](C)([C@H]3CC[C@@](C)([C@@H]4O[C@@H]([C@H]5O[C@](C)(O)[C@H](C)C[C@@H]5C)C[C@@H]4OC4C[C@H](OC)[C@@H](OC)[C@H](C)O4)O3)O2)C[C@H](O)[C@H]1C (stereo partly specified)', '1 (yes)'),
  ('CCCCCCCCCCCCCCCCCCNC(=O)OC1CCN(C(=O)OC[C@H](COC(=O)N(Cc2cccc[n+]2CC)C(=O)c2ccccc2OC)OC)CC1', '1 (yes)');
